target: 5-lipoxygenase (Rattus norvegicus, UniProt P12527); construct: supernatant fraction of Rat Basophilic Leukemia Cell Homogenate (RBL-1) serves as a 5-lipoxygenase enzyme source; endogenous in cells; experiment: Inhibition of 5-lipoxygenase, in vitro (5-HETE synthesis by RBL-1 homogenate 100,000×g supernatant); settings: RBL-1 homogenate supernatant, 5-HETE from [1-14C]-arachidonic acid with Ca++; read-out: Rat Basophilic Leukemia Cell- Inhibition IC50
Sequence (P12527 whole entry): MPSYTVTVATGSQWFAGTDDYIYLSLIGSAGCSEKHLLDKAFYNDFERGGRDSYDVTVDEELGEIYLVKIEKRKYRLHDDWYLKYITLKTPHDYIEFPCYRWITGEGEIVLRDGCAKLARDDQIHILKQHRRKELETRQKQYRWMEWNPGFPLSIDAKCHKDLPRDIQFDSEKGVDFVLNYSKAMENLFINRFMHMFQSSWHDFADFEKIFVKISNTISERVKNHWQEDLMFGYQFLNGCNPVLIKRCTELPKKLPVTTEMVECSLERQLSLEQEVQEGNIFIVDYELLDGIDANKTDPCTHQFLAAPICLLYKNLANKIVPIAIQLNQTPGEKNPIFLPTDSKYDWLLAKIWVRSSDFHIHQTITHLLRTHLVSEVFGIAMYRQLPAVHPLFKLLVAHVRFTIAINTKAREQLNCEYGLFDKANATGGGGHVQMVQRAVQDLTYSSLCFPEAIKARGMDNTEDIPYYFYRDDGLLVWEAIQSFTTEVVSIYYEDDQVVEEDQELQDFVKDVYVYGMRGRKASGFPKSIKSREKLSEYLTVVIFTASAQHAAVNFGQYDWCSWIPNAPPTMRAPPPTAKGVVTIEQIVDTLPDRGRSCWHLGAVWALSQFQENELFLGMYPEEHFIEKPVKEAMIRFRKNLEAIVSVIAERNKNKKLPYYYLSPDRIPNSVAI
Provide the reported IC50 of each item.
Numbers only, in µM.

Look over these answered cases.
[
  {
    "Molecule Smiles": "NC(=O)CCc1ccc(-c2ccc(F)cc2)n1-c1cc(Cl)ccc1O",
    "System Name": "5-lipoxygenase (Rattus norvegicus, UniProt P12527)",
    "Unit Label": "µM",
    "IC50": 2.4
  },
  {
    "Molecule Smiles": "O=C(O)CCc1ccc(-c2ccc(F)cc2)n1-c1cc(Cl)ccc1O",
    "System Name": "5-lipoxygenase (Rattus norvegicus, UniProt P12527)",
    "Unit Label": "µM",
    "IC50": 0.83
  },
  {
    "Molecule Smiles": "O=C(O)CCc1ccc(-c2ccc(Cl)cc2)n1-c1cc(Cl)ccc1O",
    "System Name": "5-lipoxygenase (Rattus norvegicus, UniProt P12527)",
    "Unit Label": "µM",
    "IC50": 10
  }
]

Next item in the queue.
Q. I would be grateful if you could share the reported IC50 for "COc1ccc(-c2ccc(CCC(=O)O)n2-c2cc(Cl)ccc2O)cc1" .
A. 35
